These entries and their values trace back to patent US9481676B2.

ASSAYED_SYSTEM: human recombinant serotonin (5-Hydroxytryptamine) 5-HT6 receptor (Homo sapiens, UniProt P50406)
Construct: expressed in transfected cells; host or cells: human HeLa cells
Sequence (P50406 whole entry): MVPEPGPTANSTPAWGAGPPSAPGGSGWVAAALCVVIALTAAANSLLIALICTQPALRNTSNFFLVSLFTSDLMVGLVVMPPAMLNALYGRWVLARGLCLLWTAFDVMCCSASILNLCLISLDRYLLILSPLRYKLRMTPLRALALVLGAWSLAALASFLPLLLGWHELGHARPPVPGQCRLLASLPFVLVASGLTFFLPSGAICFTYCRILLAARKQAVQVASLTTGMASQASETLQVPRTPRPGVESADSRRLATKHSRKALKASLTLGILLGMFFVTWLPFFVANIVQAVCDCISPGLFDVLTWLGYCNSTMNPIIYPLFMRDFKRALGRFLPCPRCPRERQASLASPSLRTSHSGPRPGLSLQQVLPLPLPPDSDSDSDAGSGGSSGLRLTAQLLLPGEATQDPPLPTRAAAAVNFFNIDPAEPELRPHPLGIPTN
ASSAY_EXPLANATION: Serotonin 5-HT6 radioligand binding ([3H]LSD)
MEASUREMENT_CONDITIONS: compound at 1 μM; read-out: Serotonin (1 μM) 5-HT6, percent inhibition of specific binding
Protocol: To evaluate in radioligand binding assays the activity of compounds of the invention, human recombinant serotonin (5-Hydroxytryptamine) 5-HT6 receptor expressed in human HeLa cells (Monsma, F. J. Jr. et al., Mol. Pharmacol. 43:320, 1993) in a modified Tris-HCl buffer (50 mM Tris-HCl, pH 7.4, 150 mM NaCl, 2 mM Ascorbic Acid, 0.001% BSA) was used. […] Receptor proteins were filtered and washed, the filters were then counted to determine [3H]LSD specifically bound. […]
REPORTED_ENDPOINT: inhibition at 1 µM (%)
Give the value in % but do not write % after it.

Would you please look over these solved cases?
[[record]]
compound = "Cc1ccc2c(c1)c1c(n2/C=C/c2ccc(Cl)cc2)CCN(C)CC1"
reported_endpoint = "inhibition at 1 µM"
numeric_readout = 97

[[record]]
compound = "COc1ccc(/C=C/n2c3c(c4cc(Cl)ccc42)CCN(C)CC3)cc1"
reported_endpoint = "inhibition at 1 µM"
numeric_readout = 91

[[record]]
compound = "Cc1ccc2c(c1)c1c(n2CC(O)c2cccnc2)CCN(C)CC1 (centres unmarked)"
reported_endpoint = "inhibition at 1 µM"
numeric_readout = 42

[[record]]
compound = "CN1CCc2c(n(CCc3ccc(Cl)cc3)c3ccc(Cl)cc23)CC1"
reported_endpoint = "inhibition at 1 µM"
numeric_readout = 86

[[record]]
compound = "COc1ccc(C(O)Cn2c3c(c4cc(C)ccc42)CCN(C)CC3)cc1F (centres unmarked)"
reported_endpoint = "inhibition at 1 µM"
numeric_readout = 87


Record summary for Cc1ccc2c(c1)c1c(n2/C=C/c2ccccc2F)CCN(C)CC1 : reported inhibition at 1 µM = 103

Record summary for COc1ccc(/C=C/n2c3c(c4cc(C)ccc42)CCN(C)CC3)cc1F : reported inhibition at 1 µM = 95

Record summary for C/C(=C\n1c2c(c3cc(C)ccc31)CCN(C)CC2)c1ccc(Cl)cc1Cl : reported inhibition at 1 µM = 86
